System: 624824-186-R-J3-PDC multicell spheroids, viability;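 further: luminescent signal used as a stand-in for spheroid viability; spheroids exposed to agents for seven days before luminescence read; percent viability relative to DMSO vehicle control wells taken as 100%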
test protocol: Anticancer human tumor 624824-186-R-J3-PDC patient-derived colon adenocarcinoma cell line growth inhibition [PI3K]
recorded conditions: second compound 0.1 µM; first compound 0.1 µM; active compounds read low
Measured viability, T/C accompanies every entry in the list below.

Worked cases, viability, T/C given:
- CCN1CCN(Cc2ccc(Nc3ncc(F)c(-c4cc(F)c5nc(C)n(C(C)C)c5c4)n3)nc2)CC1 + CC(Nc1ccc2c(c1)OCCn1cc(N3C(=O)OCC3C(F)F)nc1-2)C(N)=O: 105%
- CC1(C)CCC(CN2CCN(c3ccc(C(=O)NS(=O)(=O)c4ccc(NCC5CCOCC5)c([N+](=O)[O-])c4)c(Oc4cnc5[nH]ccc5c4)c3)CC2)=C(c2ccc(Cl)cc2)C1 + Cc1nc(NC(=O)N2CCCC2C(N)=O)sc1-c1ccnc(C(C)(C)C(F)(F)F)c1: 99.9%
- C[C@@H](NC(=O)c1ncnc(N)c1Cl)c1ncc(C(=O)Nc2cc(C(F)(F)F)c(Cl)cn2)s1 + COc1c(OCCCN2CCOCC2)ccc2c3n(c(=NC(=O)c4cnc(N)nc4)nc12)CCN3: 82.1%

Q. Which viability, T/C value is on record for CC(C)n1nc(-c2ccc3oc(N)nc3c2)c2c(N)ncnc21 + Cc1nc(NC(=O)N2CCCC2C(N)=O)sc1-c1ccnc(C(C)(C)C(F)(F)F)c1 ?
A. 48.9%

Q. For the compound shown here, C=CC(=O)N1CCN(c2nc(=O)n(-c3c(C)ccnc3C(C)C)c3nc(-c4c(O)cccc4F)c(F)cc23)C(C)C1 (stereo not given) + CC(Nc1ncnc2nc[nH]c12)c1cc2cccc(Cl)c2c(=O)n1-c1ccccc1 , give the reported viability, T/C.
A. 94.6%
